- target system: Human KLK1 (Homo sapiens, UniProt P06870)
- Sequence (P06870 25-262): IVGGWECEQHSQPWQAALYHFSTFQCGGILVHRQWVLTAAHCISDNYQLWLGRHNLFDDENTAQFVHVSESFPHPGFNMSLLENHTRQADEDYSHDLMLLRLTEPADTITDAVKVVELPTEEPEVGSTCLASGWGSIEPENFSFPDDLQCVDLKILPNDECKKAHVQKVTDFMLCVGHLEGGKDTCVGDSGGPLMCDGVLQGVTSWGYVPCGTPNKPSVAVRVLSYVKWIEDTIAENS

| compound | IC50, nM |
| --- | --- |
| Nc1ccc(CNC(=O)[C@H](Cc2ccc(Cl)c(Cl)c2)NC(=O)[C@H]2C=CCN2)cn1 | 2.7 |
| CN1CCC[C@@H]1C(=O)N[C@@H](Cc1ccccc1F)C(=O)NCc1ccc(N)nc1 | 34 |
| CC(C)N(C)[C@@H](C)C(=O)N[C@@H](Cc1cccc(C(F)(F)F)c1)C(=O)NCc1ccc(N)nc1 | 0.83 |
| CN(C)[C@@H](C(=O)N[C@@H](Cc1ccc(F)cc1)C(=O)NCc1ccc(N)nc1)C(C)(C)C | 5.1 |
| CCC(C)[C@@H](N)C(=O)N[C@@H](Cc1c[nH]c2ccccc12)C(=O)NCc1ccc(N)nc1 (some centres unmarked) | 6.6 |
| COc1ccc2[nH]c(C(=O)N[C@@H](Cc3cccc4ccccc34)C(=O)NCc3ccc(N)nc3)cc2c1 | 7.4 |
| Nc1ccc(CNC(=O)[C@H](Cc2ccc(F)c(F)c2)NC(=O)CN2CCc3ccccc3C2)cn1 | 12.7 |
| NCC(=O)N[C@@H](C(=O)NCc1ccc(N)nc1)C(C1CCCCC1)C1CCCCC1 | 55.5 |
